# experiment.notes: RP, Merck Supelco Ascentis Express C18, 100 × 2.1 mm, 2 µm, 40 °C, 0.4 mL/min, estimated dead time 0.55 min; A: water + 0.1% formic acid, pH 3; B: acetonitrile + 0.1% formic acid, pH 3; gradient (min/%B) 0/5 2/5 17/99.9 20/99.9
# particulars: stereoisomer not certain
readout: LC retention time (min)
Return type: number; implicit unit min.

Recorded LC retention time, per entry:
CC(CCC(=O)NCC(=O)O)C1CCC2C3C(O)CC4CC(O)CCC4(C)C3CCC12C (configuration not stated) [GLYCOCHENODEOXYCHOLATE] = 9.05
C=C(CC(=O)O)C(=O)O [ITACONATE] = 1.14

// query Please report the measured LC retention time for `COc1ccc2[nH]cc(CCNC(C)=O)c2c1`
// result 5.49

---

# experiment.notes: RP, Merck Supelco Ascentis Express C18, 100 × 2.1 mm, 2 µm, 40 °C, 0.4 mL/min, estimated dead time 0.55 min; A: water + 0.1% formic acid, pH 3; B: acetonitrile + 0.1% formic acid, pH 3; gradient (min/%B) 0/5 2/5 17/99.9 20/99.9
# particulars: stereoisomer not certain
readout: LC retention time (min)
Return type: number; implicit unit min.

Recorded LC retention time, per entry:
Cn1c(=O)c2c(ncn2C)n(C)c1=O = 3.63
NCCc1c[nH]c2ccc(O)cc12 = 0.857
CCCCCCCCCCCCCCCCCC(=O)[O-] [STEARATE] = 16.9
O=C(O)c1ccccc1 [BENZOATE] = 5.28
NC(Cc1c[nH]c2ccc(O)cc12)C(=O)O (stereo not given) [5-HYDROXYTRYPTOPHAN] = 0.853

// query Please report the measured LC retention time for CCC(C(=O)O)C(=O)O [ETHYLMALONATE]
// result 1.48

// query Please report the measured LC retention time for `O=CCc1ccccc1`
// result 1.09

// query Please report the measured LC retention time for O=C(O)CCCCC1SCC2NC(=O)NC21 (stereo not given)
// result 4.14

// query Please report the measured LC retention time for `NCCc1ccc(O)cc1`
// result 0.673

---

# experiment.notes: RP, Merck Supelco Ascentis Express C18, 100 × 2.1 mm, 2 µm, 40 °C, 0.2 mL/min, estimated dead time 1.1 min; A: water + 0.1% formic acid, pH 3; B: acetonitrile + 0.1% formic acid, pH 3; gradient (min/%B) 0/5 2/5 17/99.9 20/99.9
# particulars: stereoisomer not certain
readout: LC retention time (min)
Return type: number; implicit unit min.

C[Se]CCC(N)C(=O)O (configuration not stated) = 1.37
O=C(O)CCCCCCCC(=O)O [AZELATE] = 6.89
O=c1ccn(C2CC(O)C(CO)O2)c(=O)[nH]1 (configuration not stated) = 1.42
O=C(O)Cc1cc(O)ccc1O [HOMOGENTISATE] = 2.48
CCC=CCC1C(=O)CCC1CC(=O)OC (configuration not stated) [METHYL JASMONATE] = 11.2
NCCc1c[nH]c2ccccc12 = 4.56

// query Please report the measured LC retention time for O=C(O)CCCCCCCCCCCO [OMEGA-HYDROXYDODECANOATE]
// result 9.68

---

# experiment.notes: RP, Merck Supelco Ascentis Express C18, 100 × 2.1 mm, 2 µm, 40 °C, 0.25 mL/min, estimated dead time 0.88 min; A: water + 0.1% formic acid, pH 3; B: acetonitrile + 0.1% formic acid, pH 3; gradient (min/%B) 0/5 2/5 17/99.9 20/99.9
# particulars: stereoisomer not certain
The label depends only on LC retention time: T if it is at least 6 min, F if it is smaller.

Illustrative cases are given below, each with its answer.
CC12CCC(=O)C=C1CCC1C2C(=O)CC2(C)C1CCC2(O)C(=O)CO (stereo unspecified) [CORTISONE] = T
CC=CC=CC(=O)[O-] [SORBATE] = T
O=C(O)Cc1ccc(O)c(O)c1 [3,4-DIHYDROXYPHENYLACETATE] = F
O=c1ccn(C2CC(O)C(CO)O2)c(=O)[nH]1 (stereo unspecified) [DEOXYURIDINE] = F

// query Quick check, LC retention time >= 6 min? O=C(O)CCCCCCCCCCCO [OMEGA-HYDROXYDODECANOATE]
// result T

// query Quick check, LC retention time >= 6 min? O=C(O)C(=O)Cc1c[nH]c2ccccc12 [INDOLE-3-PYRUVATE]
// result T

// query Quick check, LC retention time >= 6 min? CCC(C(=O)O)C(=O)O [ETHYLMALONATE]
// result F

// query Quick check, LC retention time >= 6 min? CSc1ncnc2nc[nH]c12 [THIOPURINE S-METHYLETHER]
// result F

// query Quick check, LC retention time >= 6 min? COc1ccc2[nH]cc(CCNC(C)=O)c2c1 [MELATONIN]
// result T

// query Quick check, LC retention time >= 6 min? COc1cc(C=CC(=O)O)ccc1O [FERULATE]
// result F

// query Quick check, LC retention time >= 6 min? NC(Cc1ccccc1)C(=O)O (stereo unspecified) [PHENYLALANINE]
// result F

---

# experiment.notes: RP, Merck Supelco Ascentis Express C18, 100 × 2.1 mm, 2 µm, 40 °C, 0.4 mL/min, estimated dead time 0.55 min; A: water + 0.1% formic acid, pH 3; B: acetonitrile + 0.1% formic acid, pH 3; gradient (min/%B) 0/5 2/5 17/99.9 20/99.9
# particulars: stereoisomer not certain
readout: LC retention time (min)
Return type: number; implicit unit min.

Recorded LC retention time, per entry:
CCC(C)C(N)C(=O)O (stereo unspecified) = 0.717
CC(CCC(=O)O)C(=O)O (stereo unspecified) [2-METHYLGLUTARATE] = 2.02
O=C(O)Cc1cc(O)ccc1O [HOMOGENTISATE] = 1.16
O=C(O)CCCCCCCCCCCO [OMEGA-HYDROXYDODECANOATE] = 8.13
CSCC1OC(n2cnc3c(N)ncnc32)C(O)C1O (stereo unspecified) = 2.27

// query Please report the measured LC retention time for CC(=O)NC(Cc1ccccc1)C(=O)O (stereo unspecified)
// result 4.78

---

# experiment.notes: RP, Merck Supelco Ascentis Express C18, 100 × 2.1 mm, 2 µm, 40 °C, 0.2 mL/min, estimated dead time 1.1 min; A: water + 0.1% formic acid, pH 3; B: acetonitrile + 0.1% formic acid, pH 3; gradient (min/%B) 0/5 2/5 17/99.9 20/99.9
# particulars: stereoisomer not certain
readout: log10 of LC retention time (log10 of the value in min)
Give log10 of LC retention time, with LC retention time taken in min.

Recorded log10 of LC retention time, per entry:
O=C(O)CCc1ccccc1O [3-(2-HYDROXYPHENYL)PROPANOATE] = 1.08
CC(O)c1ccccc1 (stereo not given) [1-PHENYLETHANOL] = 0.93
NC(Cc1ccccc1)C(=O)O (stereo not given) [PHENYLALANINE] = 0.35

// query Please report the measured log10 of LC retention time for CC(=O)NC(CC(C)C)C(=O)O (stereo not given) [N-ACETYLLEUCINE]
// result 0.77

// query Please report the measured log10 of LC retention time for Nc1cc(O)cc(C(=O)O)c1 [3-AMINO-5-HYDROXYBENZOATE]
// result 0.12

---

Catalogue of log10 LC retention time readings, one per entry.
# experiment.notes: RP, Merck Supelco Ascentis Express C18, 100 × 2.1 mm, 2 µm, 40 °C, 0.35 mL/min, estimated dead time 0.63 min; A: water + 0.1% formic acid, pH 3; B: acetonitrile + 0.1% formic acid, pH 3; gradient (min/%B) 0/5 2/5 17/99.9 20/99.9
# particulars: stereoisomer not certain
Give log10 of LC retention time, with LC retention time taken in min.

Recorded log10 LC retention time, per entry:
O=C(O)CCCCCCCCCO [10-HYDROXYDECANOATE] = 0.83
Cn1cnc2c(ncn2C2OC(CO)C(O)C2O)c1=N (stereo not given) [1-METHYLADENOSINE] = 0.06
COc1ccc2[nH]cc(CCNC(C)=O)c2c1 [MELATONIN] = 0.76
OCc1cccc(O)c1 [3-HYDROXYBENZYL ALCOHOL] = 0.37
O=C(O)Cc1c[nH]c2ccc(O)cc12 [5-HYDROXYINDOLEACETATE] = 0.54
O=Cc1ccc(O)cc1 [4-HYDROXYBENZALDEHYDE] = 0.60

// query Please report the measured log10 LC retention time for CCCCCCCCCCCCCCCCCCCC(=O)O [ARACHIDATE]
// result 1.26

// query Please report the measured log10 LC retention time for CC12CCC(=O)C=C1CCC1C2CCC2(C)C1CCC2(O)C(=O)CO (stereo not given) [CORTEXOLONE]
// result 0.90

// query Please report the measured log10 LC retention time for CC(C)=CCNc1ncnc2nc[nH]c12 [N6-(DELTA2-ISOPENTENYL)-ADENINE]
// result 0.65

// query Please report the measured log10 LC retention time for O=C([O-])CCCCCCC(=O)[O-] [SUBERATE]
// result 0.69
